Test: in vitro
Settings: human, plasma
So basically, if fraction unbound comes in under 0.1 it's yes, and if it's 0.1 or more it's no.

Exercise: Strictly below 0.1: is that where fraction unbound of C#CCCCC(=O)c1cc(C(C)(C)C)c(O)c(C(C)(C)C)c1 sits?
Solution: yes

Exercise: Check if fraction unbound falls below 0.1 for CN/C(=C\[N+](=O)[O-])NCCSCc1csc(CN(C)C)n1 .
Solution: no

Exercise: Does the reported fraction unbound of the following molecule sit strictly below 0.1? COc1cc(Cc2cnc(N)nc2N)cc(OC)c1OC
Solution: no

Exercise: Record CCCCCc1cc(O)c2c(c1)OC(C)(C)[C@@H]1CCC(C)=C[C@@H]21 : is its fraction unbound strictly below 0.1?
Solution: yes

Exercise: Lab note: confirm whether the reported fraction unbound for this molecule is below 0.1, equality not counting. molecule: O=C(NCC1CCCCN1)c1cc(OCC(F)(F)F)ccc1OCC(F)(F)F (stereo not given) [FLECAINIDE]
Solution: no

New cases:
Exercise: Lab note: fraction unbound threshold 0.1. Does this molecule come in strictly under it? CN(C)CCCN1c2ccccc2Sc2ccc(Cl)cc21
Solution: yes

Exercise: Please determine if CN(C)CCC(c1ccc(Cl)cc1)c1ccccn1 (stereo not given) is below 0.1 in terms of fraction unbound.
Solution: no

Exercise: Hello, is fraction unbound of the following molecule strictly smaller than 0.1? Cc1ncc([N+](=O)[O-])n1CCO
Solution: no

Exercise: A record lists O=C1CN=C(c2ccccn2)c2cc(Br)ccc2N1 . Is its fraction unbound below 0.1?
Solution: no

---

Test: physchem
// values below are reported chromatographic logD
Simply state the number, no unit and no words.

Examples with answers:
Exercise: Which chromatographic logD reading was recorded for the compound CN1CCC[C@H]1c1cccnc1 ?
Solution: 0.23

Exercise: Please report the recorded chromatographic logD for CC(=O)Nc1ccc(O)cc1 .
Solution: 0.38

More entries:
Exercise: # lookup: chromatographic logD of CN1C[C@H](C(=O)N[C@]2(C)O[C@@]3(O)[C@@H]4CCCN4C(=O)[C@H](Cc4ccccc4)N3C2=O)C=C2c3cccc4[nH]cc(c34)C[C@H]21
Solution: 4.3

Exercise: Returns the measured chromatographic logD for the input compound. Input: CC(=O)O[C@H]1C(=O)[C@@]2(C)[C@H]([C@H](OC(=O)c3ccccc3)[C@]3(O)C[C@H](OC(=O)[C@H](O)[C@@H](NC(=O)c4ccccc4)c4ccccc4)C(C)=C1C3(C)C)[C@]1(OC(C)=O)CO[C@@H]1C[C@@H]2O
Solution: 4.45

Exercise: Could you share which chromatographic logD value was measured for CN1CCCC(n2nc(Cc3ccc(Cl)cc3)c3ccccc3c2=O)CC1 (stereo not drawn) ?
Solution: 1.93

Exercise: Entry under review: CCc1nn(CCCN2CCN(c3cccc(Cl)c3)CC2)c(=O)n1CCOc1ccccc1 . Reported chromatographic logD?
Solution: 4.83

Exercise: Returns the measured chromatographic logD for the input compound. Input: C#CCCCC(=O)c1cc(C(C)(C)C)c(O)c(C(C)(C)C)c1
Solution: 5.56

Exercise: Suppose we examine the compound CCCCCc1cc(O)c2c(c1)OC(C)(C)[C@@H]1CCC(C)=C[C@@H]21 ; what chromatographic logD value has been reported?
Solution: 6.8

---

Details: pH 7.4
PARAMETER: Fraction ionised
Answer with a bare number; do not write a unit.

Check out these entries, answers already filled in.
Exercise: Bench note: what Fraction ionised did COc1ccc([C@@H]2Sc3ccccc3N(CCN(C)C)C(=O)[C@@H]2OC(C)=O)cc1 [DILTIAZEM] show?
Solution: 0.82

Exercise: Which Fraction ionised is reported for this molecule? CNCCCN1c2ccccc2CCc2ccccc21 [DESIPRAMINE]
Solution: 0.999

Exercise: Any idea what its Fraction ionised is? The molecule is CC(C)NCC(O)COc1cccc2ccccc12 (centres undefined) [PROPRANOLOL]
Solution: 0.991

Further cases:
Exercise: Please look up its Fraction ionised: C=CCc1ccccc1OCC(O)CNC(C)C (centres undefined) [ALPRENOLOL]
Solution: 0.992

Exercise: Item CN(C)CCOC(c1ccccc1)c1ccccc1 [DIPHENHYDRAMINE] has what recorded Fraction ionised?
Solution: 0.98

Exercise: Endpoint output: Fraction ionised of CN(C)CCCN1c2ccccc2CCc2ccccc21 [IMIPRAMINE] . Value?
Solution: 0.992

Exercise: Can you share its Fraction ionised? I mean this molecule: Cc1nnc2n1-c1ccc(Cl)cc1C(c1ccccc1)=NC2 [ALPRAZOLAM]
Solution: 0

Exercise: Reported Fraction ionised, molecule COc1cc(Cc2cnc(N)nc2N)cc(OC)c1OC [TRIMETHOPRIM] : ____
Solution: 0.319

Exercise: Recorded Fraction ionised for C#CCCCC(=O)c1cc(C(C)(C)C)c(O)c(C(C)(C)C)c1 [TEBUFELONE] , please?
Solution: 0

Exercise: # lookup: Fraction ionised of CCCNCC(O)COc1ccccc1C(=O)CCc1ccccc1 (centres undefined) [PROPAFENONE]
Solution: 0.987

Exercise: # Fraction ionised lookup, item Cc1cccc(C)c1OCC(C)N (centres undefined) [MEXILETINE]
Solution: 0.981
